Hey, just so you know, these numbers are from patent US10105437B2.

- System: PBMC from HLA-DQ2+ coeliac subjects
- METHOD SUMMARY: Interferon gamma ELISPOT, hordein 20mer first round library after barley challenge
- Type: cell-based, human
- EXPERIMENTAL CONDITIONS: 17 subjects
RECORDED ENDPOINT: number of subjects with > 70% maximal response

[
  {
    "RESIDUE SEQUENCE": "QQPQPFSQQPIPQQPQPYPQ (Description of Artificial Sequence: Synthetic gluten peptide) [barley hordein 20mer]",
    "RESULT": 8
  },
  {
    "RESIDUE SEQUENCE": "WQPQQPFPQPQQPFPLQPQQ (Description of Artificial Sequence: Synthetic gluten peptide) [barley hordein 20mer]",
    "RESULT": 5
  },
  {
    "RESIDUE SEQUENCE": "PYLPEELSPQYQIPTPLQPQ (Description of Artificial Sequence: Synthetic gluten peptide) [barley hordein 20mer]",
    "RESULT": 1
  }
]

----------
- Tested on: PBMC from HLA-DQ2+ coeliac subjects
- METHOD SUMMARY: Interferon gamma ELISPOT, hordein 20mer first round library after barley challenge
- Assay type: cell-based, human
- EXPERIMENTAL CONDITIONS: 17 subjects
- Protocol: Peptides were initially dissolved in aqueous acetonitrile (50%). […] IFNγ ELISpot assays (Mabtech, Sweden) were performed in 96-well plates (MAIP S-45, Millipore) in which each well contained 25 mcl of peptide solution and 100 mcl of PBMC (2-8×10^5/well) in RPMI containing 10% heat inactivated human AB serum. After development and drying, IFNγ ELISpot plates were assessed using the MAIP automated ELISpot plate counter. […]
Recorded measurements of number of subjects with > 70% maximal response, one per entry
RECORDED ENDPOINT: number of subjects with > 70% maximal response

[
  {
    "RESIDUE SEQUENCE": "QPQQPQPFPQQPVPQQPQPY (Description of Artificial Sequence: Synthetic gluten peptide) [barley hordein 20mer]",
    "NUMERIC RESULT": 2
  },
  {
    "RESIDUE SEQUENCE": "QKYPEQPQQPFPWQQPTIQL (Description of Artificial Sequence: Synthetic gluten peptide) [barley hordein 20mer]",
    "NUMERIC RESULT": 1
  },
  {
    "RESIDUE SEQUENCE": "PFPQPPQQKYPEQPQQPFPW (Description of Artificial Sequence: Synthetic gluten peptide) [barley hordein 20mer]",
    "NUMERIC RESULT": 1
  },
  {
    "RESIDUE SEQUENCE": "PQQASPLQPQPQQASPLQPQ (Description of Artificial Sequence: Synthetic gluten peptide) [barley hordein 20mer]",
    "NUMERIC RESULT": 1
  },
  {
    "RESIDUE SEQUENCE": "PQPFPQQPIPQQPQPYPQQP (Description of Artificial Sequence: Synthetic gluten peptide) [barley hordein 20mer]",
    "NUMERIC RESULT": 2
  },
  {
    "RESIDUE SEQUENCE": "PQQPVPQQPQPYPQQPQPFP (Description of Artificial Sequence: Synthetic gluten peptide) [barley hordein 20mer]",
    "NUMERIC RESULT": 1
  },
  {
    "RESIDUE SEQUENCE": "FPQYQIPTPLQPQQPFPQQP (Description of Artificial Sequence: Synthetic gluten peptide) [barley hordein 20mer]",
    "NUMERIC RESULT": 1
  },
  {
    "RESIDUE SEQUENCE": "QQQPFPQQPIPQQPQPYPQQ (Description of Artificial Sequence: Synthetic gluten peptide) [barley hordein 20mer]",
    "NUMERIC RESULT": 2
  },
  {
    "RESIDUE SEQUENCE": "RQLPKYIIPQQPQQPFLLQP (Description of Artificial Sequence: Synthetic gluten peptide) [barley hordein 20mer]",
    "NUMERIC RESULT": 1
  },
  {
    "RESIDUE SEQUENCE": "YPQQPQPFPQQPIPQQPQPY (Description of Artificial Sequence: Synthetic gluten peptide) [barley hordein 20mer]",
    "NUMERIC RESULT": 2
  },
  {
    "RESIDUE SEQUENCE": "VSPHPGQQTTVSPHQGQQTT (Description of Artificial Sequence: Synthetic gluten peptide) [barley hordein 20mer]",
    "NUMERIC RESULT": 1
  },
  {
    "RESIDUE SEQUENCE": "PVLSQQQPCTQDQTPLLQEQ (Description of Artificial Sequence: Synthetic gluten peptide) [barley hordein 20mer]",
    "NUMERIC RESULT": 1
  },
  {
    "RESIDUE SEQUENCE": "LAAQLPAMCRLEGGGGLLAS (Description of Artificial Sequence: Synthetic gluten peptide) [barley hordein 20mer]",
    "NUMERIC RESULT": 1
  },
  {
    "RESIDUE SEQUENCE": "PFPQPQQPFSWQPQQPFLQP (Description of Artificial Sequence: Synthetic gluten peptide) [barley hordein 20mer]",
    "NUMERIC RESULT": 0
  },
  {
    "RESIDUE SEQUENCE": "QQPFPQPQQPIPYQPQQPFN (Description of Artificial Sequence: Synthetic gluten peptide) [barley hordein 20mer]",
    "NUMERIC RESULT": 1
  },
  {
    "RESIDUE SEQUENCE": "PQQPQQPFPQPQQPFSWQPQ (Description of Artificial Sequence: Synthetic gluten peptide) [barley hordein 20mer]",
    "NUMERIC RESULT": 2
  }
]

----------
- System: PBMC from HLA-DQ2+ coeliac subjects
- METHOD SUMMARY: Interferon gamma ELISPOT, second round wheat gliadin and glutenin 16mer library
- Assay type: cell-based, human
- EXPERIMENTAL CONDITIONS: 16mers pre-treated with transglutaminase; 18 or 28 subjects
RECORDED ENDPOINT: subjects with 10-40% of maximal peptide-specific response

[
  {
    "SUBSTANCE": "G-LQPFPQPQLPYSQP-G: wheat 16mer, second round library (GLQPFPQPQLPYSQPG; Description of Artificial Sequence: Synthetic gluten peptide)",
    "RESULT": "12/28"
  },
  {
    "SUBSTANCE": "QGQQGYYPTSPQQPPQ [wheat 16mer, second round library]",
    "RESULT": "Nil"
  },
  {
    "SUBSTANCE": "DAIRAIIYSIVLQEQQ [wheat 16mer, second round library]",
    "RESULT": "Nil"
  },
  {
    "SUBSTANCE": "G-LQPFPQPQLPYLQP-G: wheat 16mer, second round library (GLQPFPQPQLPYLQPG; Description of Artificial Sequence: Synthetic gluten peptide)",
    "RESULT": "12/28"
  },
  {
    "SUBSTANCE": "PGQGQSGYYPTSPQQS [wheat 16mer, second round library]",
    "RESULT": "Nil"
  },
  {
    "SUBSTANCE": "G-QPFPLQPQQPFPQQ-G: wheat 16mer, second round library (GQPFPWQPQQPFPQQG; Description of Artificial Sequence: Synthetic gluten peptide)",
    "RESULT": "7/28"
  },
  {
    "SUBSTANCE": "QQGYYPISPQQLGQGQ [wheat 16mer, second round library]",
    "RESULT": "Nil"
  },
  {
    "SUBSTANCE": "G-FPQPQQPQQPFPQQ-G: wheat 16mer, second round library (GFPQPQQPQQSFPQQG; Description of Artificial Sequence: Synthetic gluten peptide)",
    "RESULT": "3/28"
  },
  {
    "SUBSTANCE": "G-QQPQQQPQQPFPQQ-G: wheat 16mer, second round library",
    "RESULT": "5/28"
  },
  {
    "SUBSTANCE": "YVPPDCSTINVPYANI [wheat 16mer, second round library]",
    "RESULT": "1/18"
  },
  {
    "SUBSTANCE": "G-MQVDPSGQVQWPQQ-G: wheat 16mer, second round library (GIQVDPSGQVQWPQQG; Description of Artificial Sequence: Synthetic gluten peptide)",
    "RESULT": "Nil"
  },
  {
    "SUBSTANCE": "G-QQPFPQPQQPFPWQ-G: wheat 16mer, second round library",
    "RESULT": "5/28"
  },
  {
    "SUBSTANCE": "G-FPQQPQQQFPQPQQ-G: wheat 16mer, second round library (GQQPFPQPQQQFPQPG; Description of Artificial Sequence: Synthetic gluten peptide)",
    "RESULT": "Nil"
  },
  {
    "SUBSTANCE": "G-FPQLQQPQQPFPQQ-G: wheat 16mer, second round library (GFPQTQQPQQPFPQQG; Description of Artificial Sequence: Synthetic gluten peptide)",
    "RESULT": "1/28"
  },
  {
    "SUBSTANCE": "G-QQPFPQPQQPIPVQ-G: wheat 16mer, second round library",
    "RESULT": "7/28"
  },
  {
    "SUBSTANCE": "IIMQQEQQEQRQGVQI [wheat 16mer, second round library]",
    "RESULT": "8/28"
  },
  {
    "SUBSTANCE": "QGQQGYYPISPQQSGQ [wheat 16mer, second round library]",
    "RESULT": "1/18"
  },
  {
    "SUBSTANCE": "G-QPFPWQPQQPFPQQ-G: wheat 16mer, second round library (GQPTPIQPQQPFPQQG; Description of Artificial Sequence: Synthetic gluten peptide)",
    "RESULT": "8/28"
  },
  {
    "SUBSTANCE": "QGQPGYYPTSPQQIGQ [wheat 16mer, second round library]",
    "RESULT": "1/18"
  },
  {
    "SUBSTANCE": "VAHAIIMHQQQQQQQE [wheat 16mer, second round library]",
    "RESULT": "2/28"
  },
  {
    "SUBSTANCE": "VPLYRTTTSVPFGVGT [wheat 16mer, second round library]",
    "RESULT": "Nil"
  },
  {
    "SUBSTANCE": "G-LQPFPQPQLPFPQP-G: wheat 16mer, second round library (GLQPFPQPQLPFPQPG; Description of Artificial Sequence: Synthetic gluten peptide)",
    "RESULT": "5/28"
  },
  {
    "SUBSTANCE": "GQGQSGYYPTSPQQSG (QQGYYPTSPQQSGQGQ; Description of Artificial Sequence: Synthetic gluten peptide) [wheat 16mer, second round library]",
    "RESULT": "2/18"
  },
  {
    "SUBSTANCE": "LEAVTSIALRTLPTMC [wheat 16mer, second round library]",
    "RESULT": "1/18"
  },
  {
    "SUBSTANCE": "LQTLPSMCNVYIPPYC [wheat 16mer, second round library]",
    "RESULT": "Nil"
  }
]
